Reported values of inhibition at 20 µM for individual entries
Biological target: KRas G12D/Q61H double mutant (Homo sapiens (Human), UniProt P01116, G12D/Q61H)
Sequence (P01116-2 other isoform, or with tags, fused parts or gaps G12D/Q61H): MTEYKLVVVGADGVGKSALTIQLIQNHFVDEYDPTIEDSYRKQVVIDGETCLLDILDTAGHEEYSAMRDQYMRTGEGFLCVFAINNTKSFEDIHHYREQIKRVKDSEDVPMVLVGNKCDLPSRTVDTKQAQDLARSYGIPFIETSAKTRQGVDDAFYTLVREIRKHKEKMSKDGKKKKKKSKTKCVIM
Assay: Ras GTP binding domain inhibition assay (labeled GTP)
Details: at 20 μM; read-out: KRas G12D Q61H % Inh.

// worked examples, inhibition at 20 µM included
{"columns": ["Compound", "Readout Kind", "Recorded Result"],
 "data": [
  ["COc1cccc(C2CN(C(=O)c3csc4c(O)nc(-c5ccccn5)nc34)CCN2)c1 (stereo not drawn) [drawing 3662]", "inhibition at 20 µM", "25 to 50%"],
  ["Oc1nc(-c2ccccn2)nc2c(CC3CCNC3)csc12 (stereo not drawn) [drawing 3844]", "inhibition at 20 µM", "51 to 75%"],
  ["Oc1nc(-c2ccccn2)nc2cc(-c3ccccc3Cl)sc12 [drawing 3874]", "inhibition at 20 µM", "1 to 25%"],
  ["COc1ccc(CCC(=O)Nc2nc(-c3ccccn3)nc3sccc23)cn1 [drawing 3812]", "inhibition at 20 µM", "51 to 75%"],
  ["Cc1ccc(OC2CCCC2)c(-c2csc3c(O)nc(-c4ccccn4)nc23)c1 [drawing 3716]", "inhibition at 20 µM", "51 to 75%"]
]}

Report measured inhibition at 20 µM; entry is Oc1nc(-c2ccccn2)nc2c(-c3ccc(C4CCC4)cc3)csc12 [drawing 3737]
51 to 75%

Report measured inhibition at 20 µM; entry is Oc1nc(-c2ccccn2)nc2c(-c3ccc(OC4CCCC4)cc3)csc12 [drawing 3735]
25 to 50%

Report measured inhibition at 20 µM; entry is O=C(NCCc1ccc(O)c(O)c1)c1csc2nc(-c3ccccn3)nc(N3CCOCC3)c12 [drawing 3674]
0%

Report measured inhibition at 20 µM; entry is N#Cc1ccc(CCNC(=O)c2csc3nc(-c4ccccn4)nc(N4CCOCC4)c23)cc1 [drawing 3639]
1 to 25%

Report measured inhibition at 20 µM; entry is CN1CCN(c2nc(-c3ccccn3)nc3scc(C(=O)NCCc4cnc(O)nc4)c23)CC1 [drawing 3771]
25 to 50%

Report measured inhibition at 20 µM; entry is Cc1cc(OC(F)F)ccc1-c1csc2c(O)nc(-c3ccccn3)nc12 [drawing 3750]
25 to 50%

###

Target: KRas G12D/Q61H double mutant (Homo sapiens (Human), UniProt P01116, G12D/Q61H)
Assay: Ras GTP binding domain inhibition assay (labeled GTP)
Details: at 20 μM; read-out: KRas G12D Q61H % Inh.
Protocol: Buffer-I: • 50 mM Tris, pH 7.5 • 150 mM NaCl (optional) • 1 mM MgCl2 • 1 mM DTT. • KRas G12D mutant protein was expressed as a His-tagged protein. […] Then 22 μl of Cy3-GTP or Cy5-GTP was added to each well. The labeled GTP was incubated for 45 min. at room temperature. • Following GTP incubation, wells were washed 3× in Buffer-I, and 200 μl of Buffer-I were added to each well. • Following washes, the amount of bound labeled-GTP was measured with an Eppendorf AF2200 plate reader. […]
Readout Kind: inhibition at 20 µM

{"columns": ["Molecule", "Readout Kind", "Recorded Result"],
 "data": [
  ["COc1nc(-c2ccccn2)nc2c(C3CCCCC3)csc12 [drawing 3798]", "inhibition at 20 µM", "1 to 25%"]
]}

Report measured inhibition at 20 µM; entry is COc1ccnc(-c2nc(O)c3c(Br)csc3n2)c1 [drawing 3632]
25 to 50%

Report measured inhibition at 20 µM; entry is Oc1nc(-c2ccccn2)nc2cc(-c3cccc(Br)c3)sc12 [drawing 3882]
25 to 50%

Report measured inhibition at 20 µM; entry is CC(C)(C(=O)Nc1ccnc(-c2ccccn2)n1)c1ccc(C#N)cc1 [drawing 3640]
1 to 25%

Report measured inhibition at 20 µM; entry is O=C(c1csc2c(O)nc(-c3ccccn3)nc12)N1CCNC(c2ccc(F)cc2)C1 (stereo not shown) [drawing 3696]
1 to 25%

Report measured inhibition at 20 µM; entry is Oc1nc(-c2ccccn2)nc2c(-c3cccc(C(F)(F)F)c3)csc12 [drawing 3745]
25 to 50%

Report measured inhibition at 20 µM; entry is CC(C)c1csc2c(O)nc(-c3ccccn3)nc12 [drawing 3806]
51 to 75%

Report measured inhibition at 20 µM; entry is Nc1nc(O)c2sc(-c3cccc(C(=O)N4CCC(O)C4)c3)cc2n1 (stereo not shown) [drawing 3861]
1 to 25%

Report measured inhibition at 20 µM; entry is O=C(NCCc1ccnc(O)c1)c1csc2nc(-c3ccccn3)nc(N3CCOCC3)c12 [drawing 3672]
1 to 25%

Report measured inhibition at 20 µM; entry is Oc1nc(-c2ccccn2)nc2sc3c(c12)CCNC3 [drawing 3723]
51 to 75%

Report measured inhibition at 20 µM; entry is COc1cccc(CN2CCN(C(=O)c3csc4c(O)nc(-c5ccccn5)nc34)CC2)c1 [drawing 3652]
25 to 50%

Report measured inhibition at 20 µM; entry is COCCNc1nc(-c2cn(C)cn2)nc2sc(-c3ccncc3)c(-c3ccccc3)c12 [drawing 3848]
76 to 100%

Report measured inhibition at 20 µM; entry is Oc1nc(-c2ccccn2)nc2c(C3CCCCC3)csc12 [drawing 3830]
25 to 50%

Report measured inhibition at 20 µM; entry is Oc1nc(-c2ccccn2)nc2c(-c3cncc(C(F)F)c3)csc12 [drawing 3826]
1 to 25%

Report measured inhibition at 20 µM; entry is Cc1c(Br)sc2c(O)nc(-c3ccccn3)nc12 [drawing 3793]
25 to 50%

Report measured inhibition at 20 µM; entry is Oc1nc(-c2ccccn2)nc2c(Br)c(-c3ccccc3)sc12 [drawing 3871]
0%

###

Reported values of inhibition at 20 µM for individual entries
Molecular target: KRas G12D/Q61H double mutant (Homo sapiens (Human), UniProt P01116, G12D/Q61H)
Test: Ras GTP binding domain inhibition assay (labeled GTP)
Conditions: 20 μM compound; read-out: % Inhibition at 20 μM KRas G12D Q61H

// worked examples, inhibition at 20 µM included
{"columns": ["Compound", "Tested Target", "inhibition at 20 µM"],
 "data": [
  ["Oc1nc(-c2ccccn2)nc2sccc12 [drawing 2704]", "KRas G12D/Q61H double mutant (Homo sapiens (Human), UniProt P01116, G12D/Q61H)", "51 to 75%"],
  ["CCOCCC1CCN(C(=O)c2csc3c(O)nc(N)nc23)CC1 [drawing 2660]", "KRas G12D/Q61H double mutant (Homo sapiens (Human), UniProt P01116, G12D/Q61H)", "1 to 25%"],
  ["COc1cc(COCC(=O)Nc2ccnc(-c3ccccn3)n2)ccn1 [drawing 2813]", "KRas G12D/Q61H double mutant (Homo sapiens (Human), UniProt P01116, G12D/Q61H)", "25 to 50%"]
]}

Report measured inhibition at 20 µM; entry is O=C(CCc1ccccc1F)Nc1nnc(-c2ccccn2)[nH]1
25 to 50%

Report measured inhibition at 20 µM; entry is Cc1cc(N2CCN(c3cccc(C(F)(F)F)c3)CC2)n2ncnc2n1
25 to 50%

Report measured inhibition at 20 µM; entry is Clc1ccccc1-c1nnc(CN2CCCc3ccccc32)o1
25 to 50%

###

Reported values of inhibition at 20 µM for individual entries
Target: KRas Q61H mutant (Homo sapiens (Human), UniProt P01116, Q61H)
Sequence (P01116-2 other isoform, or with tags, fused parts or gaps Q61H): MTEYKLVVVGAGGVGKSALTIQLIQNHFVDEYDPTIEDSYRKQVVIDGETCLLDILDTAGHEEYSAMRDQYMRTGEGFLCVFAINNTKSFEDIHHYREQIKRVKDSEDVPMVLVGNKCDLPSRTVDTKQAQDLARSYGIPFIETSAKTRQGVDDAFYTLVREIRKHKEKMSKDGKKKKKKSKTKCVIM
Test: Ras GTP binding domain inhibition assay (labeled GTP)
Settings: 20 μM compound; KRas Q61H; read-out: % Inhibition at 20 μM of K-Ras mutant and wild-type protein, KRas Q61H

// worked examples, inhibition at 20 µM included
{"columns": ["Compound", "Readout Kind", "Recorded Result"],
 "data": [
  ["COCCNc1nc(-c2cn(C)cn2)nc2sc(-c3ccncc3)c(-c3ccccc3)c12 [drawing 3530]", "inhibition at 20 µM", "76 to 100%"],
  ["Nc1nc(O)c2sc(-c3cccc(C(=O)NC4CCNC4=O)c3)cc2n1 (stereo not drawn) [drawing 3542]", "inhibition at 20 µM", "0%"],
  ["Cc1sc2c(O)nc(-c3ccccn3)nc2c1C(=O)N1CCN(Cc2cccc(O)c2)CC1 [drawing 3510]", "inhibition at 20 µM", "51 to 75%"],
  ["Cc1ccc(-c2csc3c(O)nc(-c4ccccn4)nc23)cc1 [drawing 3560]", "inhibition at 20 µM", "1 to 25%"]
]}

Give KRas Q61H mutant (Homo sapiens (Human), UniProt P01116, Q61H) inhibition at 20 µM for the following compound: OCC1(c2ccc(-c3nc(-c4ccccn4)nc(O)c3Oc3ccccc3)cc2)CC1 [drawing 3534]
76 to 100%

Give KRas Q61H mutant (Homo sapiens (Human), UniProt P01116, Q61H) inhibition at 20 µM for the following compound: Oc1nc(-c2ccccn2)nc(Oc2cccc(C(F)(F)F)c2)c1O [drawing 3558]
51 to 75%
